Experiment: basal S. cerevisiae growth modulation, no modifier, primary screen, OD600, strain BY4716, 24 h, basal condition (AID 1173)
Conditions: OD600, 24 h, higher = more signal, called active from +8 up or from −8 down
METRIC: z-score
Note: the reply should be a number with no unit written.

Take a look at these entries with their results.
CCC[C@@H]1C[C@@]1(CCC)[C@@H](NC(=O)OCc1ccccc1)c1ccc(-c2ccccc2)cc1
-2.75
CCCCCCc1nc(C2CC2)cc2c1[Si](C(C)C)(C(C)C)O[C@H]2c1ccccc1
0.391
CCOC(=O)C[C@H]1[C@H](OC(=O)c2ccccc2-c2ccccc2)[C@@H](NC(=O)C2CCCCC2)c2cc(OCCCO)ccc2N1C(=O)Cc1ccc(OC)cc1
0.0422
O=C1O[C@@H](c2ccccc2)[C@@H](c2ccccc2)N2[C@@H](c3ccccc3OCCO)[C@]3(C(=O)Nc4ccc(C#CCCO)cc43)[C@@H](C(=O)N3CCCCCCC3)[C@H]12
0.355
CC(C)(C)OC(=O)CC[C@@]1(C(=O)NCc2ccccc2)N=C(c2ccc(OCCCO)cc2)O[C@@H]1c1ccccc1N=[N+]=[N-]
0.381

Give z-score for the following compound: CCCCO[C@H]1C[C@H]2C(I)=C[C@@H]1C(=O)[C@]21CO1
-8.45

Give z-score for the following compound: COC1OC[C@]2(C)[C@H]3C4=C(CN2C(=O)OC(C)(C)C)[C@H](C)C(CO)C(CO)C4CC[C@@H]13 (some centres not stated)
1.14

---

Molecular target: Torsin-1A (Homo sapiens) (UniProt O14656)
Sequence (O14656 whole entry, looked up): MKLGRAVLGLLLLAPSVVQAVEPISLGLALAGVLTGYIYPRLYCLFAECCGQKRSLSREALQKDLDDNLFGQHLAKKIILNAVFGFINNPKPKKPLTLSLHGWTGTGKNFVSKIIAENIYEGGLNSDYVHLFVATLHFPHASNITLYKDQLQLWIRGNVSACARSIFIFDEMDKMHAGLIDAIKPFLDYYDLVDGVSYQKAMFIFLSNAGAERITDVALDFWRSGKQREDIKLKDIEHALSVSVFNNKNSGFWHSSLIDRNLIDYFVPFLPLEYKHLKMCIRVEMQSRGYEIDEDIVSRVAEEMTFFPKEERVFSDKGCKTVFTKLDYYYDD
Assay: small-molecule binders of mutant TOR1A in lysate, primary screen, cell lysate, small-molecule microarray, COS7 lysate, 635/667 nm fluorescence (AID 1150);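 also: score pools 667 nm emission and signal to noise measuring lysate protein binding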
Details: COS7 hTOR1A mutant lysate, 635 nm fluorescence, higher = more signal
METRIC: composite z-score
Note: the reply should be a number with no unit written.

Give composite z-score for the following molecule: COC(=O)c1c2oc(c1C(=O)OC)C(=O)N(C)Cc1cn(nn1)C[C@H](Cc1ccccc1)NC(=O)N[C@H](CO)CC2
-0.641

Give composite z-score for the following molecule: COc1ccc([Si](C)(C)[C@H]2[C@H](CCn3cc([C@H](O)c4ccccc4)nn3)O[C@@]3(C(=O)N(Cc4ccc(N5C(=O)c6cccc7cccc5c67)cc4)c4ccccc43)[C@@H]2C)cc1
-0.35

Give composite z-score for the following molecule: CN(C)c1ccc(C(O)C2C=CC3C(=O)N(c4ccccc4)C(=O)C3N2Nc2ccc([N+](=O)[O-])cc2)cc1 (centres undefined)
0.377

Give composite z-score for the following molecule: CC(C)OC(=O)C=C1C[C@@H](c2ccc(C(F)(F)F)cc2)O[C@@H](c2ccc(C(F)(F)F)cc2)O1
0.483

Give composite z-score for the following molecule: Cn1cccc1C(O)C1C=CC2C(=O)NC(=O)C2N1Nc1ccc(Cl)cc1Cl (centres undefined)
1.05

---

# Lookup of reported composite z-score keyed by entry
Tested on: wheat germ agglutinin (Triticum aestivum), Alexa647-labelled
Assay: wheat germ agglutinin binders on compound microarrays, profiling panel, artefact control for SMM control-protein annotation, biochemical, small-molecule microarray, 635/667 nm fluorescence (AID 1140);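 also: score merges 667 nm feature emission with signal to noise over triplicate slides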
Conditions: WGA-A647 binding, 635 nm fluorescence, higher = more signal
Note: the reply should be a number with no unit written.

Give composite z-score for the following compound: C=CCC(OC(C)=O)[C@@H]1[C@@H](N(Cc2cccc3ccccc23)C(=O)Cc2ccc(OC)cc2)c2cc(OCCCO)ccc2N1C(=O)c1ccc2ccccc2n1 (stereo partly drawn)
0.174

Give composite z-score for the following compound: CN(C)C(=O)[C@]1(CCS(=O)(=O)c2ccccc2)N=C(c2ccc(OCCCO)cc2)O[C@@H]1c1ccccc1N=[N+]=[N-]
0.941

Give composite z-score for the following compound: Cc1cc(C)c(C(O)C2C=CC3C(=O)N(c4ccccc4)C(=O)C3N2Nc2ccc(C(C)C)cc2)c(C)c1 (stereo not drawn)
1.39

Give composite z-score for the following compound: COc1ccc([Si](C)(C)[C@@H]2[C@@H](CC(=O)N3Cc4ccccc4C[C@H]3CO)O[C@]3(C(=O)N(Cc4cccc(N5C(=O)c6cccc7cccc5c67)c4)c4ccccc43)[C@H]2C)cc1
0.423

---

Assay: basal RPMI8226 mitochondrial membrane potential changes, profiling panel, cell-based, JC-1 fluorescence, 24 h, 100 nL compound (AID 1169); also: test concentration not given here
Settings: RPMI8226 myeloma, JC-1 mitochondrial potential fluorescence, higher = more signal
METRIC: z-score
Note: the reply should be a number with no unit written.

Take a look at these entries with their results.
COCCOC(=O)N1C(=O)[C@@]2(c3cc(C#CCNC(N)=O)ccc31)[C@H](C(=O)N1CCc3cc(OC)c(OC)cc3C1)[C@H]1C(=O)O[C@H](c3ccccc3)[C@H](c3ccccc3)N1[C@@H]2c1ccccc1OCCO
-0.502
CCOC(=O)C1=C[C@@H](c2ccccc2)N(S(=O)(=O)c2ccc(C)cc2)[C@H]1c1ccccc1Cl
1.01

Okay, next one:
Give z-score for the following molecule: O=C1O[C@@H](c2ccccc2)[C@@H](c2ccccc2)N2[C@@H](c3ccccc3OCCO)[C@]3(C(=O)Nc4ccc(C#CCCO)cc43)[C@@H](C(=O)N3CCCCCCC3)[C@H]12
-1.11

---

Test: E. coli growth modulation, two-sided OD650, primary screen, E. coli filamentation project, strain DRC41, 24 h (AID 1093);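 also: MC1000 strain lacking acrAB efflux and sulA so SOS filamentation is blocked; test concentration not given here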
Conditions: OD650, 24 h, higher = more signal, called active from +8 up or from −8 down
# label = Y if z-score >= 0.4 else N

CCCCCCCCCCC(O)C1C=CC2C(=O)N(C)C(=O)C2N1NC(=O)OC(C)(C)C (centres undefined)
N

Here is the next item to consider.
Check this compound for z-score at or above 0.4: COc1ccc(C#Cc2ccc3c(c2)[C@]2(C(=O)N3)[C@H](c3ccc(O)cc3)N3[C@H](c4ccccc4)[C@H](c4ccccc4)OC(=O)[C@H]3[C@@H]2C(=O)O)cc1
Y

---

Tested on: Lefty1
Experiment: Lefty1 binders on small-molecule microarrays, primary screen, biochemical, small-molecule microarray, 635/667 nm fluorescence (AID 1139)
Settings: small-molecule microarray binding, fluorescence 635/667; higher = more signal
# Lookup of reported composite z-score keyed by entry
Note: the reply should be a number with no unit written.

COCCCNC(=O)[C@@]1(Cc2ccccc2CN=[N+]=[N-])N=C(c2ccc(OCCCO)cc2)O[C@H]1c1ccccc1
0.365
C[C@@H]1NC(=O)[C@@]23C(=O)N[C@@H](Cc4ccccc4)C2[C@H](C)[C@@]2(C)O[C@H]2C3/C=C/C/C=C\CNC(=O)[C@@H]2CCCN2C1=O (some centres not stated)
0.0216
O=C(NCc1ccccc1)[C@@H]1c2ccccc2C(=O)N(Cc2ccccc2C(F)(F)F)[C@H]1c1ccc(CO)cc1
-0.324
O=C1O[C@@H](c2ccccc2)[C@@H](c2ccccc2)N2[C@@H](c3ccc(OCCO)cc3)[C@]3(C(=O)Nc4ccccc43)[C@@H](C(=O)O)[C@H]12
0.044
CC(C)(C)N1CC=CC23O[C@@H]4C=CCCOC(=O)C4[C@H]2C(=O)N(CCO)[C@@H]3C1=O (some centres not stated)
-0.551
CCOC(=O)C1=C[C@@H](c2ccccc2)N(S(=O)(=O)c2ccc(C)cc2)[C@H]1c1ccccc1Cl
0.838

Give composite z-score for the following compound: O=C1OCCC=C[C@H]2OC34C=CCN(Cn5nnc6ccccc65)C(=O)[C@H]3N(CCCCCCO)C(=O)[C@@H]4C12 (some centres not stated)
-1.28

---

Molecular target: Fibroblast growth factor 10 (Homo sapiens)
Experiment: FGF10 binders on small-molecule microarrays, primary screen, biochemical, small-molecule microarray, 635 nm fluorescence (AID 1102)
Conditions: FGF10 binding, fluorescence 635 nm, higher = more signal
METRIC: composite z-score
Note: the reply should be a number with no unit written.

C=C(/C(=C/C[C@H](OC(=O)c1ccncc1)c1ccc(CO)o1)c1cc(C(=O)OC)ccc1OC)C(C)C
0.909
CCOC(=O)C[C@H]1[C@H](OC(=O)c2ccccc2-c2ccccc2)[C@@H](NC(=O)c2ccc(-c3ccccc3)cc2)c2cc(OCCCO)ccc2N1C(=O)c1ccc2ccccc2n1
0.948
COc1ccc([Si](C)(C)[C@@H]2[C@@H](CC(=O)N(CCO)Cc3ccccc3)O[C@]3(C(=O)N(Cc4cccc(N5CCOC5=O)c4)c4ccccc43)[C@H]2C)cc1
0.386
CCC[C@@H]1C[C@@]1(CCC)[C@@H](NC(=O)OCc1ccccc1)c1ccc(-c2ccccc2)cc1
-0.933
CN(C)C(=O)[C@]1(CCS(=O)(=O)c2ccccc2)N=C(c2ccc(OCCCO)cc2)O[C@@H]1c1ccccc1N=[N+]=[N-]
1.42

Print Fibroblast growth factor 10 (Homo sapiens) composite z-score for COC(=O)C1=CC(CCCO)=CC(C2CC2)N(C)C=C1C(=O)OC (stereo not given) .
-0.259

Print Fibroblast growth factor 10 (Homo sapiens) composite z-score for COC(=O)c1cn(C[C@@H](Cc2ccccc2)NC(=O)N[C@H](CO)CCc2oc(C(C)=O)c(C(=O)OC)c2C(=O)OC)nn1 .
0.738

Print Fibroblast growth factor 10 (Homo sapiens) composite z-score for C=C[C@@H](COC(C)=O)N(C(=O)OC(C)(C)C)S(=O)(=O)c1ccc(Br)cc1 .
1.18

Print Fibroblast growth factor 10 (Homo sapiens) composite z-score for CN(C)CCCCNC(=O)[C@@H]1C[C@@H]2C(=O)N[C@@H](Cc3ccccc3)C(=O)N2[C@@H]1c1cccc(OCCO)c1 .
0.407

Print Fibroblast growth factor 10 (Homo sapiens) composite z-score for COc1ccc(-c2nc(-c3ccccc3)c3c(c2C)CO[Si]3(C(C)C)C(C)C)cn1 .
0.984

Print Fibroblast growth factor 10 (Homo sapiens) composite z-score for COC(=O)CCCCCCC(=O)Nc1ccc(NC(=O)CCCC[P+](c2ccccc2)(c2ccccc2)c2ccccc2)cc1 .
1.38

Print Fibroblast growth factor 10 (Homo sapiens) composite z-score for CC1=C[C@@]2(CO)C(=O)[C@]3(CO3)[C@@H]1[C@H]1[C@]2(C)C=C(CO)C(=O)[C@]12CO2 .
0.302

Print Fibroblast growth factor 10 (Homo sapiens) composite z-score for COc1cc2c(cc1OC)CN(C(=O)[C@@H]1[C@H]3C(=O)O[C@H](c4ccccc4)[C@H](c4ccccc4)N3[C@H](c3ccc(OCCO)cc3)[C@@]13C(=O)Nc1ccccc13)CC2 .
1.4

Print Fibroblast growth factor 10 (Homo sapiens) composite z-score for Cc1ccc(S[C@]2(C(=O)O)CC(=O)N(Cc3ccccc3Cl)[C@@H]2c2ccc(CO)cc2I)cc1 .
-0.054

Print Fibroblast growth factor 10 (Homo sapiens) composite z-score for O=C1C2C=CC(C(O)c3ccc(Br)cc3)N(Nc3ccccc3F)C2C(=O)N1c1ccccc1 (stereo not given) .
0.118

Source of measurements: PubChem BioAssay
